Listed next: entries and their corresponding OD 405 nm.
- TESTED_TARGET: human HER2 Extracellular Domain (HER2 ECD) (human, UniProt P04626 23-652)
- TEST: ELISA, antigen coated, hybridoma supernatant
Use OD as the unit, but write only the number.

Which OD 405 nm value is on record for anti-HER3 antibody M-46-01 (antibody, V domains shown, mouse hybridoma clone) VH: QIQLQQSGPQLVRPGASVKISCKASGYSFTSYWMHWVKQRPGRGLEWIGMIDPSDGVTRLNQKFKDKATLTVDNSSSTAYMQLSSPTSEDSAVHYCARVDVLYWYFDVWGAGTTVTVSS VL: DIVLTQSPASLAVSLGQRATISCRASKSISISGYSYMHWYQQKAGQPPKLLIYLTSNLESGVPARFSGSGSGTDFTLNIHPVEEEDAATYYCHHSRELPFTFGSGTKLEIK ?
0.04

// same read-out, input: anti-HER3 antibody M-43-01 (antibody, V domains shown, mouse hybridoma clone) VH: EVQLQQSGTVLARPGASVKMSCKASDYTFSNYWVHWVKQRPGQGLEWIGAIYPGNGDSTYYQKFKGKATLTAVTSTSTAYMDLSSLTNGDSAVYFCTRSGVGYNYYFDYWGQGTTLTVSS VL: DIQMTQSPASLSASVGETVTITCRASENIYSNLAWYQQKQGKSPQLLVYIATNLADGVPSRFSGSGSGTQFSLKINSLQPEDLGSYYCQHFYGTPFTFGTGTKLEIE
0.045
